ED50 listing for selected compounds.
Tested on: apomorphine climbing
Protocol summary: climbing mice assay (antipsychotic activity)
Type: in vivo, mice (CK-1 male)
Condition details: Mus musculus; ip; apomorphine 1.5 mg/kg subcutaneously; climbing score vs control

- Compound: "Fc1ccc2c(c1)CN(CCN1CCN(c3n[nH]c4ccccc34)CC1)C2.O=C(O)/C=C\\C(=O)O.O=C(O)/C=C\\C(=O)O"
  Unit info: "mg/kg"
  ED50: 1.32
- Compound: "O=C1c2ccccc2C(O)N1CCN1CCN(c2n[nH]c3cc(F)ccc23)CC1 (stereo not drawn)"
  Unit info: "mg/kg"
  ED50: 2.2
- Compound: "COc1cc(C(C)=O)ccc1OCCCN1CCN(c2n[nH]c3ccccc23)CC1"
  Unit info: "mg/kg"
  ED50: 0.98
- Compound: "COc1cc(C(C)=O)ccc1OCCCCN1CCC(c2noc3ccccc23)CC1"
  Unit info: "mg/kg"
  ED50: 1.6
- Compound: "Fc1ccc2c(c1)CN(CCN1CCC(c3n[nH]c4cc(F)ccc34)CC1)C2.O=C(O)/C=C\\C(=O)O.O=C(O)/C=C\\C(=O)O"
  Unit info: "mg/kg"
  ED50: 0.27
- Compound: "Cc1nc2ccccc2c(=O)n1CCN1CCC(c2noc3cc(F)ccc23)CC1"
  Unit info: "mg/kg"
  ED50: 0.61
- Compound: "Cc1ccc2c(c1)C(=O)N(CCN1CCN(c3n[nH]c4cc(F)ccc34)CC1)C2=O"
  Unit info: "mg/kg"
  ED50: 0.37
- Compound: "Cl.O=C1c2ccccc2C(=O)N1CCN1CCC(c2noc3cc(F)ccc23)CC1"
  Unit info: "mg/kg"
  ED50: 0.48
- Compound: "O=C(CN1CCC(c2noc3cc(F)ccc23)CC1)N1Cc2ccccc2C1.O=C(O)/C=C/C(=O)O"
  Unit info: "mg/kg"
  ED50: 2.33
- Compound: "Cl.Cl.NCCCN1CCC(c2noc3cc(F)ccc23)CC1"
  Unit info: "mg/kg"
  ED50: 22.6
- Compound: "Nc1ccc2c(c1)C(=O)N(CCN1CCC(c3noc4cc(F)ccc34)CC1)C2=O.O=C(O)/C=C/C(=O)O"
  Unit info: "mg/kg"
  ED50: 0.097
- Compound: "Cl.O=C1c2ccc(O)cc2C(=O)N1CCN1CCC(c2noc3cc(F)ccc23)CC1"
  Unit info: "mg/kg"
  ED50: 1.6
- Compound: "Fc1ccc2c(N3CCN(CCCN4Cc5ccccc5C4)CC3)n[nH]c2c1"
  Unit info: "mg/kg"
  ED50: 0.46
- Compound: "COc1cc(C(C)=O)ccc1OCCCN1CCC(c2noc3ccccc23)CC1"
  Unit info: "mg/kg"
  ED50: 0.67
- Compound: "O=C1c2ccccc2C(=O)N1CCN1CCC(c2noc3cc(F)ccc23)CC1"
  Unit info: "mg/kg"
  ED50: 5
- Compound: "CCCCCCCCCC(=O)OCCCCN1CCC(c2noc3cc(F)ccc23)CC1.O=C(O)/C=C/C(=O)O"
  Unit info: "mg/kg"
  ED50: 3.31
- Compound: "Fc1ccc2c(C3CCN(CCCOc4cccc5cnccc45)CC3)noc2c1"
  Unit info: "mg/kg"
  ED50: 0.172
- Compound: "Fc1ccc2c(C3CCN(CCN4CCc5ccccc5C4)CC3)n[nH]c2c1.O=C(O)/C=C\\C(=O)O.O=C(O)/C=C\\C(=O)O"
  Unit info: "mg/kg"
  ED50: 0.44
- Compound: "OCCCN1CCC(c2noc3cc(F)ccc23)CC1"
  Unit info: "mg/kg"
  ED50: 4.1
- Compound: "Fc1ccc2c(N3CCN(CCN4Cc5ccccc5C4)CC3)n[nH]c2c1.O=C(O)/C=C\\C(=O)O.O=C(O)/C=C\\C(=O)O"
  Unit info: "mg/kg"
  ED50: 0.25
- Compound: "Cc1ccc2c(c1)CN(CCN1CCN(c3n[nH]c4cc(F)ccc34)CC1)C2 [difumarate]"
  Unit info: "mg/kg"
  ED50: 0.17
- Compound: "O=C1c2ccccc2CN1CCN1CCC(c2noc3cc(F)ccc23)CC1"
  Unit info: "mg/kg"
  ED50: 1.9
- Compound: "Fc1ccc2c(c1)CN(CCN1CCN(c3n[nH]c4cc(F)ccc34)CC1)C2.O=C(O)/C=C\\C(=O)O.O=C(O)/C=C\\C(=O)O"
  Unit info: "mg/kg"
  ED50: 0.16
- Compound: "O=C(CN1CCC(c2noc3cc(F)ccc23)CC1)N1CCc2ccccc2C1"
  Unit info: "mg/kg"
  ED50: 6.25
